# target of assay: fRR, fluorescently labelled H14 foldamer RR
# measurement description: fluorescence polarisation; direct FP: S100 protein diluted in 50 nM labeled foldamer, 20 mM HEPES pH 7.5, 150 mM NaCl, 1 mM CaCl2, 0.5 mM TCEP, 0.01% Tween20; quadratic fit (ProFit); detection threshold Kd 1 mM
pKd: −log10 of the molar value.
// pKd lookup, one value per entry

binder	pKd
S100B (natural protein) MSELEKAMVALIDVFHQYSGREGDKHKLKKSELKELINNELSHFLEEIKEQEVVDKVMETLDNDGDGECDFQEFMAFVAMVTTACHEFFEHE	3.68
S100A8 (natural protein) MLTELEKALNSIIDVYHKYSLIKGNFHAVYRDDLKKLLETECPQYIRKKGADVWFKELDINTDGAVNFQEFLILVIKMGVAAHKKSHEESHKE	< 3.00

# input for lookup
pKd reported for this binder S100Z (natural protein) MPTQLEMAMDTMIRIFHRYSGKERKRFKLSKGELKLLLQRELTEFLSCQKETQLVDKIVQDLDANKDNEVDFNEFVVMVAALTVACNDYFVEQLKKKGK : < 3.00
